- TARGET_UNDER_TEST: Cysteine protease ATG4B (Homo sapiens, UniProt Q9Y4P1);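 also: Fluorescence-based dose-response confirmation assay measuring inhibition of ATG4B activity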
- Sequence (Q9Y4P1 whole entry): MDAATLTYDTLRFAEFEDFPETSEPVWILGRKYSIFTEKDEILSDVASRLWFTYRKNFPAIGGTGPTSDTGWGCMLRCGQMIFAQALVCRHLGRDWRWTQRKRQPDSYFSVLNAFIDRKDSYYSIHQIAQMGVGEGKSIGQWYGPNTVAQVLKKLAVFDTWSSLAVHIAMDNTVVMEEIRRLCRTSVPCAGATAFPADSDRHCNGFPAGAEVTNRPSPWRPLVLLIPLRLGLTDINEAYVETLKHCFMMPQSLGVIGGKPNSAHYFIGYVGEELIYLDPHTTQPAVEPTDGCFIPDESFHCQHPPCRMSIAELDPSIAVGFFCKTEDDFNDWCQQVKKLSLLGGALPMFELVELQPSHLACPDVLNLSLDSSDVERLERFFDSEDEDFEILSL
- Type: functional
Calls of active or inactive are those of the source.
A correct response names exactly one class from active, inactive

Cc1ccccc1S(=O)(=O)Nc1nc2ccccc2nc1N1CCc2ccccc2C1	inactive
O=C(N/N=C/c1ccccc1Cl)c1nc(O)c2cc([N+](=O)[O-])ccc2n1	active
CC(/C=C1\SC(=S)N(c2ccc(C(=O)O)cc2)C1=O)=C\c1ccccc1	active
COc1cc(/C=C2/C(=N)N3C=CSC3=NC2=O)ccc1OCCCOc1c(C)cccc1C	active

// next entry
Asked: Write down the call the test reported for this compound. Item: Oc1ccc(Cl)cc1Sc1cc(Cl)ccc1O
Given back: active

###

- Tested on: Streptococcus
- ASSAY_COMMENT: GAS UMAA2166 growth inhibition – luminescence, BacTiterGlo, counter-screen for streptokinase expression inhibitor project, dose response (AID 1915);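 also: potency for reduction of bacterial viability or growth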
- Assay type: functional, organism-based
Calls of active or inactive are those of the source.
EC50 for assorted molecules

# count of solved cases: 3
CNC(=Nc1cc(Cl)ccc1Cl)SC1CC(=O)N(c2ccc(C(=O)OC)cc2)C1=O (centres undefined)	12.5 µM (active)
CCC(CC)NC(=O)c1oc2ccccc2c1COc1ccccc1	17 µM (active)
Cc1ccc(C(=O)NC(=S)NNC(=O)c2ccccc2O)cc1	5.63 µM (active)

// EC50 lookup, molecule = CCCC(=O)NC(c1ccco1)c1cc(Cl)c2cccnc2c1O (centres undefined) , result: 32 µM (active)

###

- TARGET_UNDER_TEST: Voltage-dependent T-type calcium channel subunit alpha-1H (Homo sapiens, UniProt O95180);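 also: channel activity triggered by adding a high calcium stimulation buffer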
- Sequence (O95180 whole entry): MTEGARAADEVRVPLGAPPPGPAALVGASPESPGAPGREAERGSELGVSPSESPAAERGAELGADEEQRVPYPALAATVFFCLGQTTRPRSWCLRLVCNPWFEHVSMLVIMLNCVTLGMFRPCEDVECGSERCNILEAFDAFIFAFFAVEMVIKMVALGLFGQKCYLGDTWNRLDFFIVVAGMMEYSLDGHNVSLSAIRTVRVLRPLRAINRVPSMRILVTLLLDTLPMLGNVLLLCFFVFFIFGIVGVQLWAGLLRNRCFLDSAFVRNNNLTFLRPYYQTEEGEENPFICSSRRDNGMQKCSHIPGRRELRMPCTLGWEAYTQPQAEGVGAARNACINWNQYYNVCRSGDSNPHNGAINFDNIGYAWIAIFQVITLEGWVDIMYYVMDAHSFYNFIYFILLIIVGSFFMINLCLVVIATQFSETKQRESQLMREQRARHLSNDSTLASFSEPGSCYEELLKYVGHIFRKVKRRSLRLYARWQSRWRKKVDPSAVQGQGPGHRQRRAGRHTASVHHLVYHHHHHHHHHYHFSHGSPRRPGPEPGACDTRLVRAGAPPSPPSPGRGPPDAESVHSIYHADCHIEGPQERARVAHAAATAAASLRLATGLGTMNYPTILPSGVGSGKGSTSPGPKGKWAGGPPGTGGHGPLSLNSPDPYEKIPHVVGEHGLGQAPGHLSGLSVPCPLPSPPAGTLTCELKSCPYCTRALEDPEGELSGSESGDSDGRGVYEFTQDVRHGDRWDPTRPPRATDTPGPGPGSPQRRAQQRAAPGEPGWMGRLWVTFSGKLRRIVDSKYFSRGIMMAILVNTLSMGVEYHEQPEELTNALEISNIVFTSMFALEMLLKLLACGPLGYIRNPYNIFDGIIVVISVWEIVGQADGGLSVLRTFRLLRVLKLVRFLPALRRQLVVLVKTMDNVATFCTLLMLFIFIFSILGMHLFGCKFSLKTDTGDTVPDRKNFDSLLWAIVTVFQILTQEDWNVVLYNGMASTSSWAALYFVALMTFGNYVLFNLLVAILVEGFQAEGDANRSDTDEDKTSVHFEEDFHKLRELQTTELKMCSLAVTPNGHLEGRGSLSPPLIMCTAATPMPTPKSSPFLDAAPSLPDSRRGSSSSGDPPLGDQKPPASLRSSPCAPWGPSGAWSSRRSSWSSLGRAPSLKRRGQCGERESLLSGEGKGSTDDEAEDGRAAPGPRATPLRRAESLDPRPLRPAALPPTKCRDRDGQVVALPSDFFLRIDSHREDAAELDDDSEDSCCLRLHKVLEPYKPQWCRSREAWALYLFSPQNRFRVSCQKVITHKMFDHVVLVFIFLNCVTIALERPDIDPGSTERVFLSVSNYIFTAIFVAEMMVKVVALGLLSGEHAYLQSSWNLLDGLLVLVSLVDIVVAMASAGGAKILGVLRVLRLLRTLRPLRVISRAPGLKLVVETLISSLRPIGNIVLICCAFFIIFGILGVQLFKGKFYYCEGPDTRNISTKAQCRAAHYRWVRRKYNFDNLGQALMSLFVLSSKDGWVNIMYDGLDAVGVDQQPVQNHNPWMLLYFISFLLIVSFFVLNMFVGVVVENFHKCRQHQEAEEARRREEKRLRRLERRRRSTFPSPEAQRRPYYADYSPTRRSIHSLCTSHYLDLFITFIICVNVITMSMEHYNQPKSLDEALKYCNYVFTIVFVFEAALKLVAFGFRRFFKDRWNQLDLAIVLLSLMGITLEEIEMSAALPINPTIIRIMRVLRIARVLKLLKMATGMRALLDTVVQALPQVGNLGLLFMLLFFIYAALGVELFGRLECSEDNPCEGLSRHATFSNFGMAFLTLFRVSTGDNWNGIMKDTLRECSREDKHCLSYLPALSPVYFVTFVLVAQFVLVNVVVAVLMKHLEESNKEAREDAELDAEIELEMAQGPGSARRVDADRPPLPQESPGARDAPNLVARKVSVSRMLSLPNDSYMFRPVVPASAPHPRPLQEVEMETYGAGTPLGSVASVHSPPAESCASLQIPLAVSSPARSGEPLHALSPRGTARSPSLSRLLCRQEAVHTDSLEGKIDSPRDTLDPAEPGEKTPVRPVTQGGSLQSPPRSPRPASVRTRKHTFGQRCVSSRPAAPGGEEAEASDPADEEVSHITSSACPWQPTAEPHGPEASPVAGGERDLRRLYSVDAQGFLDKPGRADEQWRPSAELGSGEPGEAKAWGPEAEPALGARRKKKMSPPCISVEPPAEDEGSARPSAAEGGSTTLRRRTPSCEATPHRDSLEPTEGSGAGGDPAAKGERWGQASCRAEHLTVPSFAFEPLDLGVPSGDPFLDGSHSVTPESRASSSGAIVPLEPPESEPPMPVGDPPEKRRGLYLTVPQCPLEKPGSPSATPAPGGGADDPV
- Type: functional
Calls of active or inactive are those of the source.
EC50 values for the compounds below.

Here is how some compounds turned out for EC50.
O=C(CSc1cccc(C(F)(F)F)c1)NC(=O)NCc1ccco1	1.67 µM (active)
Cc1cc2cc(CCNC(=O)c3c(-c4ccccc4Cl)noc3C)c(=O)[nH]c2cc1C	4.77 µM (active)
O=C(Nc1ccccc1Cl)C1CCN(Cc2cnn(-c3ccccc3)c2-n2cccc2)CC1	2.74 µM (active)
CCCn1cc(SCC(=O)Nc2ccc3c(c2)OCO3)c2ccccc21	5.11 µM (active)

Next, consider the following compound.
EC50 in this record for CC(C(=O)NCc1ccc2c(c1)OCO2)N1c2cccc3cccc(c23)S1(=O)=O (stereo not given) : 9.35 µM (active)

###

- TARGET_UNDER_TEST: Corticotropin-releasing factor receptor 2/Corticotropin-releasing factor-binding protein (Homo sapiens, UniProt P24387+Q13324)
- Sequence (Q13324 whole entry): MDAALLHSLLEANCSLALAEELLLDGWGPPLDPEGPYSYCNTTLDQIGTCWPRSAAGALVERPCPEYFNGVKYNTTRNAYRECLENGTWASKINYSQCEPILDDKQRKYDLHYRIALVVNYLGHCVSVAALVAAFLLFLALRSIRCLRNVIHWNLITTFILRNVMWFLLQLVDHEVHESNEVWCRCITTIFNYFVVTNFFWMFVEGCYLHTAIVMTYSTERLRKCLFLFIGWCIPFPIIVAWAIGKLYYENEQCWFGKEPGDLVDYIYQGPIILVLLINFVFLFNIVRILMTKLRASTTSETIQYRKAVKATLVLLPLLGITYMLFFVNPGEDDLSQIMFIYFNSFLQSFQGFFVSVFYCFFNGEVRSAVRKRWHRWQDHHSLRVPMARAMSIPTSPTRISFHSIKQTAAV
- Sequence (P24387 whole entry): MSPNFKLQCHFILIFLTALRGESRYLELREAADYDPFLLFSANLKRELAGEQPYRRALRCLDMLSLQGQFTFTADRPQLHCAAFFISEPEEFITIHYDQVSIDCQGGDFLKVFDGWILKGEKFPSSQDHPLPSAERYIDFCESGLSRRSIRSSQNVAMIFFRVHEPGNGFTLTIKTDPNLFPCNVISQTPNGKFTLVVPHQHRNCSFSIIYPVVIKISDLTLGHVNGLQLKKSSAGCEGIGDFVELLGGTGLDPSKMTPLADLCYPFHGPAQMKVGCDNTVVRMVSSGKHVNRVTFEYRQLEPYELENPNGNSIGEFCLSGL
- ASSAY_COMMENT: activators of CRF receptor 2 with binding protein – uHTS hits, confirmation (AID 602473)
- Format: functional
- TEST_SETTINGS: read-out: EC50_Mean
Active and inactive are the calls of the source.
READOUT_KIND: EC50

Examples from the recorded data:
Cc1ccc(OC(=O)N(C)C[C@@H]2OCc3cnnn3CCCC(=O)N([C@@H](C)CO)C[C@@H]2C)cc1	> 53 µM (inactive)
CCCCOc1ccccc1C1C(C(=O)OC)=CN(CC)C=C1C(=O)OC	> 53 µM (inactive)
O=S(=O)(NC1CCCC1)c1ccc(S(=O)(=O)NC2CCCC2)cc1	> 53 µM (inactive)
Cc1cccc(N2C(N)=NC(N)=NC23CCCCC3)c1	> 53 µM (inactive)

// sample O=C1CC(c2cccc(F)c2)SC(N(c2ccccc2)c2ccccc2)=N1 (configuration not stated) , its EC50 was > 53 µM (inactive)

COc1ccc(C(C(=O)NC2CCCCC2)N(C(=O)c2sc(C)nc2C)c2ccc(OC)cc2)cc1 (configuration not stated) yielded EC50 of > 53 µM (inactive)

Entry under test: CC[C@]12c3[nH]c4ccc(OC)cc4c3CCN1C(=O)C(CC(=O)NCCCOC)C[C@@H]2C(=O)N1CCN(C(=O)c2ccco2)CC1 (some centres not stated) . Its EC50 was > 53 µM (inactive)
